This collection of values is drawn from paper PMC7774954.

System: IL16-2
experiment: Holdup assay, IL16-2
Assay type: binding, human
observable: BI

// query BI value for entry CC[C@H](C)[C@H](NC(=O)[C@H](CCC(N)=O)NC(=O)[C@@H](NC(=O)[C@H](Cc1c[nH]cn1)NC(=O)[C@H](CCC(N)=O)NC(=O)[C@H](CC(=O)O)NC(=O)[C@H](CCC(=O)O)NC(=O)[C@H](CC(=O)O)NC(=O)CCC(=O)NCCCOCCOCCOCCCNC(=O)CCCC[C@@H]1SC[C@@H]2NC(=O)N[C@@H]21)[C@@H](C)O)C(=O)N[C@H](C(=O)N[C@@H](CCCCNC(C)=O)C(=O)N[C@H](C(=O)O)C(C)C)[C@@H](C)O [PTEN_Ac]
-0.157
